meta.source: patent US20250034275A1

Provide the recorded ADCC, PBMC killing (LDH), H322, Maximum killing (%) for the entries that follow.
- assayed target: T1, human Trop-2 (on the surface of human cell lines) (human, UniProt P09758 27-323)
- T1 sequence: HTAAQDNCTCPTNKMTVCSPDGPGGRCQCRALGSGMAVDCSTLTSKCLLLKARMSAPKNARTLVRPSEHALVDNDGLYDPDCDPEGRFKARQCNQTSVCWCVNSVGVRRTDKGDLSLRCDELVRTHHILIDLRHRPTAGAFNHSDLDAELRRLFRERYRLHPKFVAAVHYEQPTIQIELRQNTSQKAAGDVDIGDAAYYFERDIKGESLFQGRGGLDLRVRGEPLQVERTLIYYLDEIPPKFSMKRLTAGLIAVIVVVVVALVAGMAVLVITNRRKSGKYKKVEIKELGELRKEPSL
- assay text: cell-based or functional assay
Give bare numbers, in %.

// field: ADCC, PBMC killing (LDH), H322, Maximum killing (%); key: hz-Ab35-2.3 (antibody, human IgG1, kappa, V domains shown, Humanized antibody) VH: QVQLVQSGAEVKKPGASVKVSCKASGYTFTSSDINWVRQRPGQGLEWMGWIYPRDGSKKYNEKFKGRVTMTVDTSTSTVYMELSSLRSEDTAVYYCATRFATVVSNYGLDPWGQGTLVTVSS VL: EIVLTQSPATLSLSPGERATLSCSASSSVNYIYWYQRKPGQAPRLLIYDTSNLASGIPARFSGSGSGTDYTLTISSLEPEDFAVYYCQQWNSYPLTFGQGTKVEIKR ; value = 50.3

Answer for every listed entry: what is its ADCC, PBMC killing (LDH), H322, Maximum killing (%)? The entries follow.
1. hz-Ab2-1.1 (antibody, human IgG1, kappa, V domains shown, Humanized antibody) VH: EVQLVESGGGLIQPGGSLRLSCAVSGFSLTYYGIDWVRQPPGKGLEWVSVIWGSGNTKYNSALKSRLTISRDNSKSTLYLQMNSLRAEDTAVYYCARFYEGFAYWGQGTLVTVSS VL: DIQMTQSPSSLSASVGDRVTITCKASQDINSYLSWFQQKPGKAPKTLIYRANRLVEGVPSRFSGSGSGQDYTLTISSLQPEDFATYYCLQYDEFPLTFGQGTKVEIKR
2. hz-Ab35-2.2 (antibody, human IgG1, kappa, V domains shown, Humanized antibody) VH: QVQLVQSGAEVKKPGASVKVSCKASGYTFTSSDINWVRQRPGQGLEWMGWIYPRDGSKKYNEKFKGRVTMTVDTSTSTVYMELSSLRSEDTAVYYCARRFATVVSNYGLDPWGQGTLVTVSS VL: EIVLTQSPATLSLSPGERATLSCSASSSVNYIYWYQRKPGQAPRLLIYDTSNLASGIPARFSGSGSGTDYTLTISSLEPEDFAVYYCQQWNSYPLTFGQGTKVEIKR

Result:
1: 47.8; 2: 51.4
